experiment: stability studies and metabolite identification in mice and human microsomes; conditions: mice and human microsomes
assay.readout: metabolic stability (in words)

COc1ccc(-c2c(C)nc3c(N4CC[C@@H](NC(=O)C(F)(F)F)C4)cc(C)nn23)cc1OC: generally stable
COc1ccc(-c2c(C)nc3c(N4CC[C@@H](NC(=O)Nc5ccccc5)C4)cc(C)nn23)cc1OC: generally stable
CCCCCC(=O)N[C@@H]1CCN(c2cc(C)nn3c(-c4ccc(OC)c(OC)c4)c(C)nc23)C1: generally stable
COc1ccc(-c2c(C)nc3c(N4CC[C@@H](NC(=O)Oc5ccccc5)C4)cc(C)nn23)cc1OC: generally stable

All figures here come from paper PMC8025741.
